# System: HEK-293T
# Test details: Multiplex assay against HEK293T
# Assay type: toxicity, cell-based
# Setup conditions: human, 48 h, 10 µM, compound concentration 10 uM, replicate 2
Below, each entry is listed with its recorded Population Tubulin-Different-Phenotype (%).
Express it in %; write the number only.

{"Compound": "COc1cc2nc(N3CCN(C(=O)c4ccco4)CC3)nc(N)c2cc1OC.Cl [PRAZOSIN HYDROCHLORIDE]", "Unit abbreviation": "%", "Value reported": 11}
{"Compound": "CN(C)C(=O)Cn1cc(-c2ccc(-c3nnc4ccccn34)cc2)cn1", "Unit abbreviation": "%", "Value reported": 12}
{"Compound": "N[C@](CC1c2ccccc2Oc2ccccc21)(C(=O)O)[C@H]1C[C@@H]1C(=O)O", "Unit abbreviation": "%", "Value reported": 12}

Switching to the query record.
Answer with the recorded Population Tubulin-Different-Phenotype (%) for the compound listed here: Cc1nn(C)c2nc(NNC(=O)Nc3cc(Cl)nc(Cl)c3)cc(C(C)C)c12
63

----------
Recorded Population Fragmented Nuclei (%), one value per entry.
# Tested on: Fibroblast
# Test details: Multiplex assay against human fibroblast
# Assay type: toxicity, cell-based
# Setup conditions: 12 h, 10 µM, compound concentration 10 uM, replicate 2

{"Smiles": "C[C@H](NC(=O)CNC(=O)c1cccc(Cl)c1)c1ccccc1", "Population Fragmented Nuclei (%)": "31%"}

Specify measured Population Fragmented Nuclei (%) for CCCCC[C@H](O)/C=C/[C@H]1[C@H](O)CC(=O)[C@@H]1CCCCCCC(=O)O .
25%

Using known records, supply Population Fragmented Nuclei (%) for Cn1cc(C(=O)OCC2CCN(CCNS(C)(=O)=O)CC2)c2ccccc21
32%

----------
# Tested on: U2OS
# Test details: Multiplex assay against U2OS
# Type: toxicity, cell-based
# Setup conditions: human, 24 h, 1 µM, compound concentration 1 uM, replicate 2
Quantity name: Population Tubulin-Different-Phenotype (%)
Report only the number, with the unit % understood.

See these solved cases before continuing.
{"Compound": "Cc1cc(-c2ccc3c(c2)CC[C@H]3N2CC3(CCN(C(=O)Cc4cn5cc(C)sc5n4)CC3)C2)ncn1", "Unit abbreviation": "%", "Value reported": 2}
{"Compound": "CC(C)C[C@H](CO)Nc1nc(S[C@@H](C)c2ccccc2)nc2nc(N)sc12", "Unit abbreviation": "%", "Value reported": 3}
{"Compound": "CSc1nc(NC2CCCC2)c([N+](=O)[O-])c(NC2CCCC2)n1", "Unit abbreviation": "%", "Value reported": 0}

Find Population Tubulin-Different-Phenotype (%) for CC(C)(O)C(=O)N1CCN(c2ccc(C(F)(F)F)c(C3=C(c4c[nH]c5ccccc45)C(=O)NC3=O)c2)CC1 on U2OS and write it down.
2

Write down measured Population Tubulin-Different-Phenotype (%) (U2OS) for this compound. OCCCNc1cc(-c2ccnc(Nc3cccc(Cl)c3)n2)ccn1
16

Tell me its Population Tubulin-Different-Phenotype (%) on U2OS: O=C(NCCNCC(O)COc1ccc(O)cc1)N1CCOCC1.O=C(NCCNCC(O)COc1ccc(O)cc1)N1CCOCC1.O=C(O)/C=C/C(=O)O (stereo not given) [XAMOTEROL FUMARATE]
5

Write down measured Population Tubulin-Different-Phenotype (%) (U2OS) for this compound. Cl.Cl.OCCOCCN1CCN(C(c2ccccc2)c2ccc(Cl)cc2)CC1 (stereo not given) [HYDROXYZINE HYDROCHLORIDE]
1

Send back U2OS Population Tubulin-Different-Phenotype (%) of COc1cc(C(=O)N2CC[C@@H](O)[C@@H](N)C2)cc2nc(-c3cc4ccccc4n3CC3CC3)n(C)c12.Cl only.
17

Param request: Population Tubulin-Different-Phenotype (%) | system U2OS | item Cn1cc(C(=O)OCC2CCN(CCNS(C)(=O)=O)CC2)c2ccccc21
6

Answer briefly: Population Tubulin-Different-Phenotype (%) recorded on U2OS for O=C(Nc1cc(-c2ccccc2)nn1-c1ccccc1F)c1ccc([N+](=O)[O-])cc1
6

----------
# Test system: Fibroblast
# Test details: Multiplex assay against human fibroblast
# Type: toxicity, cell-based
# Setup conditions: 12 h, 10 µM, compound concentration 10 uM, replicate 2
Quantity name: Population Mitotic Cells (%)
The reply should be a number in %, with the unit left off.

{"Compound": "OCCCNc1cc(-c2ccnc(Nc3cccc(Cl)c3)n2)ccn1", "Unit abbreviation": "%", "Population Mitotic Cells (%)": 47}
{"Compound": "COc1cc(C(=O)N2CC[C@@H](O)[C@@H](N)C2)cc2nc(-c3cc4ccccc4n3CC3CC3)n(C)c12.Cl", "Unit abbreviation": "%", "Population Mitotic Cells (%)": 51}
{"Compound": "CN1CCN2c3ccccc3Cc3ccccc3C2C1.Cl (centres undefined) [MIANSERIN HYDROCHLORIDE]", "Unit abbreviation": "%", "Population Mitotic Cells (%)": 66}
{"Compound": "CN(C)C/C=C/C(=O)Nc1ccc(C(=O)N2CCCC(Nc3ncc(Cl)c(-c4c[nH]c5ccccc45)n3)C2)cc1 (centres undefined)", "Unit abbreviation": "%", "Population Mitotic Cells (%)": 51}
{"Compound": "COc1ccc2[nH]c(I)c(CCNC(C)=O)c2c1 [IODOMELATONIN]", "Unit abbreviation": "%", "Population Mitotic Cells (%)": 69}
{"Compound": "S=C(NCCCc1c[nH]cn1)NCCCN(Cc1ccc(Cl)c(Cl)c1)c1ccc(Br)cn1", "Unit abbreviation": "%", "Population Mitotic Cells (%)": 47}
{"Compound": "Cc1cc(-c2ccc3c(c2)CC[C@H]3N2CC3(CCN(C(=O)Cc4cn5cc(C)sc5n4)CC3)C2)ncn1 [PF-5190457]", "Unit abbreviation": "%", "Population Mitotic Cells (%)": 54}
{"Compound": "Cc1c(Cc2ccc3ccccc3n2)c2cc(F)ccc2n1CC(=O)O [TIMAPIPRANT]", "Unit abbreviation": "%", "Population Mitotic Cells (%)": 46}

Turning to the following compound.
Provide Population Mitotic Cells (%) value for the following compound: CN1CCN(c2ccc(Nc3c4ccccc4nc4ccccc34)cc2)CC1.Cl.Cl.O
33

----------
Quick reference: Population Apoptotic (%) of the listed items.
# Test system: U2OS
# Test details: Multiplex assay against U2OS
# Format: toxicity, cell-based
# Setup conditions: human, 12 h, 1 µM, compound concentration 1 uM, replicate 2
Numbers only; they are read as %.

Solved cases below.
{"Compound": "COc1cc(C(=O)N2CC[C@@H](O)[C@@H](N)C2)cc2nc(-c3cc4ccccc4n3CC3CC3)n(C)c12.Cl", "Quantity name": "Population Apoptotic (%)", "Unit abbreviation": "%", "Value reported": 75}
{"Compound": "Nc1nc(CC(=O)Nc2ccc(CCNC[C@H](O)c3ccccc3)cc2)cs1 [MIRABEGRON]", "Quantity name": "Population Apoptotic (%)", "Unit abbreviation": "%", "Value reported": 100}

Read the next record carefully.
Quickly give me recorded Population Apoptotic (%) for Cc1nn(C)c2nc(NNC(=O)Nc3cc(Cl)nc(Cl)c3)cc(C(C)C)c12
72

----------
# System: Fibroblast
# Test details: Multiplex assay against human fibroblast
# Type: toxicity, cell-based
# Setup conditions: 48 h, 1 µM, compound concentration 1 uM, replicate 1
Non-standard residues stand in square brackets, D forms with d. Residues, ends and D or L forms follow the SMILES beside them.
Please note: Satisfied applies when Population Pyknosed Nuclei (%) is 10% or greater, and Not satisfied applies otherwise.

Does COc1cc2nc(N3CCN(C(=O)COc4c(OC)cccc4C(C)C)CC3)nc(N)c2cc1OC.Cl.Cl have a reported Population Pyknosed Nuclei (%) of at least 10%?
Satisfied

Could you tell me if the measured Population Pyknosed Nuclei (%) of CC(F)(F)CN1CCOc2c(nn(-c3ccccc3Cl)c2-c2ccc(Cl)cc2)C1=O reaches 10% or more?
Satisfied

Is Population Pyknosed Nuclei (%) for O=C(Nc1cc(-c2ccccc2)nn1-c1ccccc1F)c1ccc([N+](=O)[O-])cc1 at or above 10%?
Not satisfied

Please check the record COCCCN1CCC(NC(=O)c2cc(Cl)c(N)c3c2OCC3)CC1 [PRUCALOPRIDE] and state if its Population Pyknosed Nuclei (%) is at or above 10%.
Satisfied

Quick check, Population Pyknosed Nuclei (%) >= 10%? CN1CCC(C(=O)c2cccc(NC(=O)c3c(F)cc(F)cc3F)n2)CC1
Not satisfied

Has CN(C)C(=O)Cn1cc(-c2ccc(-c3nnc4ccccn34)cc2)cn1 a recorded Population Pyknosed Nuclei (%) greater than or equal to 10%?
Satisfied

Determine whether this compound has Population Pyknosed Nuclei (%) no lower than 10%: CC(C)C[C@@H]1NC(=O)[C@@H](C(C)C)NC(=O)[C@@H]2CCCN2C(=O)[C@@H](CC(=O)O)NC(=O)[C@@H](Cc2c[nH]c3ccccc23)NC1=O [BQ-123] (cyclo(L[dW][dD]P[dV]))
Satisfied

Measured values drawn from ChEMBL document CHEMBL5058577 for this set.
